- Tested on: C3H/He mice, whose hair cycle was at the telogen stage
- MEASUREMENT PROTOCOL: Hair regrowth effect test
- Format: in vivo
- MEASUREMENT CONDITIONS: 50 nM in 70% ethanol, 0.1 ml once a day on shaved back, after 24 days, average of 6 mice
ENDPOINT LABEL: Hair regrowth area rate (%)
All answers are understood in %, so give the number only.

These recorded examples may help you get a feel for the data.
{"COMPOUND": "CCCCCCCCCCCCCCCCOCC(COC)OC (centres unmarked)", "Hair regrowth area rate, %": 68}
{"COMPOUND": "CCCCCCCCCCCCCCCCOC(CO)COC (centres unmarked)", "Hair regrowth area rate, %": 70}
{"COMPOUND": "CCCCCCCCCCCCCCCCOCCCO", "Hair regrowth area rate, %": 15}
{"COMPOUND": "CCCCCCCCCCCCCCCCOCC(O)COC (centres unmarked)", "Hair regrowth area rate, %": 65}

Complete the entry with Hair regrowth area rate for CCCCCCCCCCCCCCCCCCC(CO)OC (centres unmarked)
70

* * *

- MEASUREMENT PROTOCOL: Hair regrowth inducing effect test by cell cluster-accompanied culture method
- Format: cell-based
- MEASUREMENT CONDITIONS: Homo sapiens, Human dermal papilla cell, 48 h; 10 μM, 2 days, Alamer Blue fluorescence, relative to negative control; read-out: Relative respiration level (%)
ENDPOINT LABEL: activity at 10 µM

These recorded examples may help you get a feel for the data.
{"COMPOUND": "CCCCCCCCCCCCCCCCOC(CO)COC (stereo not drawn)", "RESULT VALUE": "139%"}
{"COMPOUND": "CCCCCCCCCCCCCCCCOC(CO)CO", "RESULT VALUE": "122%"}
{"COMPOUND": "CCCCCCCCCCCCCCCCOCC(O)COC (stereo not drawn)", "RESULT VALUE": "108%"}

Attention now shifts to the item below.
Complete the entry with activity at 10 µM for CCCCCCCCCCCCCCCCOCC(COC)OC (stereo not drawn)
127%

* * *

Reported activity at 10 µM is given for each of the following compounds.
- MEASUREMENT PROTOCOL: Hair regrowth inducing effect test by cell cluster-accompanied culture method
- Type: cell-based
- MEASUREMENT CONDITIONS: Homo sapiens, Human dermal papilla cell, 48 h; 10 μM, 2 days, Alamer Blue fluorescence, relative to negative control; read-out: Relative respiration level (%)
All answers are understood in %, so give the number only.

{"COMPOUND": "CCCCCCCCCCCCCCCCCCC(CO)OC (centres unmarked) [Compound 5, 2-Methoxy-1-eicosanol]", "VALUE UNIT": "%", "activity at 10 µM": 124}

Complete the entry with activity at 10 µM for CCCCCCCCCCCCCCCCCCOCC(C)(C)CO [Compound 8, 2,2-Dimethyl-3-octadecyloxy-1-propanol]
106

Complete the entry with activity at 10 µM for CCCCCCCCCCCCCCCCOCCCO [Compound 3, 3-Hexadecyloxy-1-propanol]
106

Complete the entry with activity at 10 µM for CCCCCCCCCCCCCCCCCC(=O)OCC(CO)OC (centres unmarked) [Compound 6, 3-Hydroxy-2-methoxypropyl stearate]
101

Complete the entry with activity at 10 µM for CCCCCCCCCCCCCCCCCCC(O)CO (centres unmarked) [Compound 9, 1,2-eicosanediol]
130
